The origin of these recorded values is patent US20250250357A1.

- SUBJECT_OF_TEST: T1, human MSLN-R1-his protein (human, UniProt Q13421 296-390)
- T1 construct: Region 1 of human MSLN, His-tagged; also called human MSLN-R1 protein; hMSLN-R1-his; not shown: His tag
- T1 chain: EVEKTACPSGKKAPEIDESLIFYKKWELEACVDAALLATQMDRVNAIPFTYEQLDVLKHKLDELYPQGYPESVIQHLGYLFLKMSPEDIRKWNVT
- METHOD_DESCRIPTION: ELISA, coated MSLN-R1;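 also: serially diluted chimeric antibodies bound to the coated, BSA-blocked plate for 2 h at 37 °C, with TMB colour read after acid stop and a negative control antibody alongside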
ENDPOINT_NAME: OD450 at 0.01 nM

BINDER	OBS_VALUE
S009-F2.21.4 (antibody, human IgG1, kappa, V domains shown, Human-murine chimeric antibody, human IgG1/kappa constant regions) VH: EVQLQQSGPELVKPGASVKIPCKASGYTFTDYNMDWVKQSHGKSLEWIGDINPNNGGSIYNQRFKGKATLTVDKSSSTAYMELRSLTSEDSAVYYCARRAYYSTGYFDVWGTGTTVTVSS VL: QIVLTQSPALMSASPGEKVTITCSASSSISYMHWFQQKPGTSPKLWIYSTSTLASGVPARFSGSGSGTSYSLTISRMEAEDTATYYCQQRSSYPPTFGGGTKLEIKR	0.05 OD450
